- tgt: Transthyretin (Homo sapiens) (UniProt P02766)
- assay-explanation: Binding affinity to transthyretin (unknown origin) in pH 7.4 PBS buffer assessed as protein occupancy at 1:1 compound to TTR ratio by fluorescent probe exclusion assay
measured-parameter: Occ (%)

Examples from the recorded data:
[[record]]
compound = "Cc1n[nH]c(C)c1CCCOc1cc(C(=O)O)ccc1I"
tgt = "Transthyretin (Homo sapiens) (UniProt P02766)"
measured_parameter = "Occ"
units_of_measure = "%"
measured_number = 58.3

[[record]]
compound = "CCc1n[nH]c(CC)c1CCCOc1cc(C(=O)O)ccc1F"
tgt = "Transthyretin (Homo sapiens) (UniProt P02766)"
measured_parameter = "Occ"
units_of_measure = "%"
measured_number = 17.2


(I) O=C(O)c1cc(-c2ccc(F)cc2F)ccc1O [DIFLUNISAL]
(II) O=C(O)c1ccc2nc(-c3cc(Cl)cc(Cl)c3)oc2c1
[Q] Sorting by Occ in descending order, would I or II appear first? Reply with the label of the item you choose.
[A] II
(II: 49.9%, I: 28.7%)
